# Test system: HCT116
# Procedure Summary: In vitro cytotoxicity / anti-proliferation assay (CCK8)
# Format: cell-based
# Experimental Setup: Homo sapiens, HCT-116, colorectal cancer cell line HCT116, 72 h
# Description: To determine whether DCLK1 was required for tumour cell proliferation, the cytotoxicity of compounds was evaluated in colorectal cancer cell line HCT116. HCT116 was treated with compounds for 72 h, and the cell viability was determined using CCK8 assay (Figure 4). The antiproliferative effects of most compounds on HCT116 were correlated with their DCLK1 inhibitory activities, except for compounds D1 and D2. […]
pIC50: −log10 of the molar value.
Observed Property: pIC50

molecule="CCOc1cc(N2CCC(O)CC2)ccc1Nc1ncc2c(n1)N(C)c1ccc(F)cc1C(=O)N2C [Compound A6]" observed_property=pIC50 relation== endpoint_result=4.61
molecule="COc1cc(NC(=O)CC(=O)O)ccc1Nc1ncc2c(n1)N(C)c1ccccc1C(=O)N2C [Compound D1]" observed_property=pIC50 relation=< endpoint_result=4.00
molecule="CCOc1cc(N2CCC(O)CC2)ccc1Nc1ncc2c(n1)N(C)c1cccc(F)c1C(=O)N2C [Compound A9]" observed_property=pIC50 relation== endpoint_result=4.69
molecule="CCOc1cc(N2CCC(O)CC2)ccc1Nc1ncc2c(n1)N(C)c1ccccc1C(=O)N2CC [Compound B3]" observed_property=pIC50 relation== endpoint_result=4.48
molecule="CCOc1cc(N2CCN(C[C@@]3(O)OC[C@@H](O)[C@@H](O)[C@@H]3O)CC2)ccc1Nc1ncc2c(n1)N(C)c1ccccc1C(=O)N2C [Compound D7]" observed_property=pIC50 relation== endpoint_result=4.98
molecule="CCOc1cc(N2CC[S+]([O-])CC2)ccc1Nc1ncc2c(n1)N(C)c1ccccc1C(=O)N2C [Compound D5]" observed_property=pIC50 relation== endpoint_result=4.97
molecule="COc1cc(NC(=O)CCC(=O)O)ccc1Nc1ncc2c(n1)N(C)c1ccccc1C(=O)N2C [Compound D2]" observed_property=pIC50 relation=< endpoint_result=4.00
molecule="COc1cc(N2CCC(F)(F)CC2)ccc1Nc1ncc2c(n1)N(C)c1ccccc1C(=O)N2C [Compound D14]" observed_property=pIC50 relation== endpoint_result=4.81
molecule="CCOc1cc(N2CCSCC2)ccc1Nc1ncc2c(n1)N(C)c1ccccc1C(=O)N2C [Compound D4]" observed_property=pIC50 relation== endpoint_result=4.54
molecule="COc1cc(N2CCCCC2)ccc1Nc1ncc2c(n1)N(C)c1ccccc1C(=O)N2C [Compound D11]" observed_property=pIC50 relation== endpoint_result=4.94
molecule="CCOc1cc(N2CCC(C(=O)O)CC2)ccc1Nc1ncc2c(n1)N(C)c1ccccc1C(=O)N2C [Compound D3]" observed_property=pIC50 relation== endpoint_result=4.67
molecule="CCOc1cc(N2CCS(=O)(=O)CC2)ccc1Nc1ncc2c(n1)N(C)c1ccccc1C(=O)N2C [Compound D6]" observed_property=pIC50 relation== endpoint_result=4.92
molecule="COc1cc(N2CCC(OC)CC2)ccc1Nc1ncc2c(n1)N(C)c1ccccc1C(=O)N2C [Compound D12]" observed_property=pIC50 relation== endpoint_result=4.99
molecule="COc1cc(NC(=O)CCCCCSC(C)=O)ccc1Nc1ncc2c(n1)N(C)c1ccccc1C(=O)N2C [Compound D8]" observed_property=pIC50 relation== endpoint_result=4.94
molecule="COc1cc(N2CCC(C)(O)CC2)ccc1Nc1ncc2c(n1)N(C)c1ccccc1C(=O)N2C [Compound D15]" observed_property=pIC50 relation== endpoint_result=5.01
molecule="CCOc1cc(N2CCC(O)CC2)ccc1Nc1ncc2c(n1)N(C)c1ccccc1C(=O)N2C [XMD8-92, reference compound]" observed_property=pIC50 relation== endpoint_result=4.79

----------
# Lookup of reported melting point keyed by entry
Observed Property: melting point

compound="CN1C(=O)c2ccccc2N(C)c2nc(NC3CCC(N4CCC(O)CC4)CC3)ncc21 (stereo not drawn)" observed_property="melting point" endpoint_result="203 to 204 °C"
compound="COc1cc(NC(=O)CC(=O)O)ccc1Nc1ncc2c(n1)N(C)c1ccccc1C(=O)N2C [Compound D1]" observed_property="melting point" endpoint_result="187 to 188 °C"
compound=CCOc1cc(N2CCC(O)CC2)ccc1Nc1ncc2c(n1)N(C)c1cccc(C)c1C(=O)N2C observed_property="melting point" endpoint_result="184 to 185 °C"
compound=CCOc1cc(N2CCC(O)CC2)ccc1Nc1ncc2c(n1)N(C)c1c(Cl)cccc1C(=O)N2C observed_property="melting point" endpoint_result="130 to 131 °C"
compound=CCOc1cc(N2CCS(=O)(=O)CC2)ccc1Nc1ncc2c(n1)N(C)c1ccccc1C(=O)N2C observed_property="melting point" endpoint_result="157 to 158 °C"
compound=COc1cc(N2CCC(C)(C)CC2)ccc1Nc1ncc2c(n1)N(C)c1ccccc1C(=O)N2C observed_property="melting point" endpoint_result="181 to 182 °C"
compound=COc1cc(N2CCC(C)(O)CC2)ccc1Nc1ncc2c(n1)N(C)c1ccccc1C(=O)N2C observed_property="melting point" endpoint_result="162 to 163 °C"
compound=CCOc1cc(N2CCC(O)CC2)ccc1Nc1ncc2c(n1)N(C)c1ccc(Cl)cc1C(=O)N2C observed_property="melting point" endpoint_result="173 to 174 °C"
compound=CCOc1cc(N2CCC(O)CC2)ccc1Nc1ncc2c(n1)N(C)c1ccc(C)cc1C(=O)N2C observed_property="melting point" endpoint_result="170 to 171 °C"

----------
# System Name: DCLK1 (Homo sapiens, UniProt O15075)
# Construct: purchased Eurofins (Belgium), contract assay service
# Sequence (O15075 1-740): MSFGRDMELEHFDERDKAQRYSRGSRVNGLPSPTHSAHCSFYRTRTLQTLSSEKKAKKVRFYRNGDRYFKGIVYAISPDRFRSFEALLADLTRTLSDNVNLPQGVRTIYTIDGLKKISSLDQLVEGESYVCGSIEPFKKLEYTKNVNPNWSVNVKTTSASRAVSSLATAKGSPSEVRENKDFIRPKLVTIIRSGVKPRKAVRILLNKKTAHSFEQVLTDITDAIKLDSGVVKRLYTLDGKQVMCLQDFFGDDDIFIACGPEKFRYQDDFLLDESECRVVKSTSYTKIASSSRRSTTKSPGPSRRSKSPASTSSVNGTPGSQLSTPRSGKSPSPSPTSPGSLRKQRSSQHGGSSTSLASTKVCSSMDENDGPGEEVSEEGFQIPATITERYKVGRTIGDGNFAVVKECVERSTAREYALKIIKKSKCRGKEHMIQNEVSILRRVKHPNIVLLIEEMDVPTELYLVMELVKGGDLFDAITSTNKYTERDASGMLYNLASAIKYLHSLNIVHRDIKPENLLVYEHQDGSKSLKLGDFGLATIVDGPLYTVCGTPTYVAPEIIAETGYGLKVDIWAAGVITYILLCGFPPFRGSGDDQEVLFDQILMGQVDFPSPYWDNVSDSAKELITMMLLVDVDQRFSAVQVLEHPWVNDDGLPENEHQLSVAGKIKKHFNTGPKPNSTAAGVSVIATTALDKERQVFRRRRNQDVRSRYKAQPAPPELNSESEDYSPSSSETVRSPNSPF
# Procedure Summary: In vitro DCLK1 kinase activity assay (Eurofins)
# Type: biochemical
# Experimental Setup: ratio of IC50 values
Listed here are molecules together with their documented Selectivity (IC50 of DCLK1/IC50 of LRRK2).
Observed Property: Selectivity (IC50 of DCLK1/IC50 of LRRK2)

molecule="CCOc1cc(N2CCS(=O)(=O)CC2)ccc1Nc1ncc2c(n1)N(C)c1ccccc1C(=O)N2C [Compound D6]" system_name="DCLK1 (Homo sapiens, UniProt O15075)" relation== endpoint_result=0.38
molecule="CCOc1cc(N2CCSCC2)ccc1Nc1ncc2c(n1)N(C)c1ccccc1C(=O)N2C [Compound D4]" system_name="DCLK1 (Homo sapiens, UniProt O15075)" relation== endpoint_result=0.64
molecule="COc1cc(N2CCC(OC)CC2)ccc1Nc1ncc2c(n1)N(C)c1ccccc1C(=O)N2C [Compound D12]" system_name="DCLK1 (Homo sapiens, UniProt O15075)" relation== endpoint_result=0.47
molecule="CCOc1cc(N2CCC(O)CC2)ccc1Nc1ncc2c(n1)N(C)c1ccccc1C(=O)N2CC [Compound B3]" system_name="DCLK1 (Homo sapiens, UniProt O15075)" relation=< endpoint_result=0.32
molecule="COc1cc(N2CCC(F)(F)CC2)ccc1Nc1ncc2c(n1)N(C)c1ccccc1C(=O)N2C [Compound D14]" system_name="DCLK1 (Homo sapiens, UniProt O15075)" relation== endpoint_result=0.40
molecule="CCOc1cc(N2CCN(C[C@@]3(O)OC[C@@H](O)[C@@H](O)[C@@H]3O)CC2)ccc1Nc1ncc2c(n1)N(C)c1ccccc1C(=O)N2C [Compound D7]" system_name="DCLK1 (Homo sapiens, UniProt O15075)" relation== endpoint_result=0.30
molecule="CCOc1cc(N2CCC(O)CC2)ccc1Nc1ncc2c(n1)N(C)c1cccc(F)c1C(=O)N2C [Compound A9]" system_name="DCLK1 (Homo sapiens, UniProt O15075)" relation=< endpoint_result=0.34
molecule="CCOc1cc(N2CCC(O)CC2)ccc1Nc1ncc2c(n1)N(C)c1ccc(F)cc1C(=O)N2C [Compound A6]" system_name="DCLK1 (Homo sapiens, UniProt O15075)" relation=< endpoint_result=0.37
molecule="CCOc1cc(N2CC[S+]([O-])CC2)ccc1Nc1ncc2c(n1)N(C)c1ccccc1C(=O)N2C [Compound D5]" system_name="DCLK1 (Homo sapiens, UniProt O15075)" relation== endpoint_result=0.46
molecule="COc1cc(N2CCC(C)(O)CC2)ccc1Nc1ncc2c(n1)N(C)c1ccccc1C(=O)N2C [Compound D15]" system_name="DCLK1 (Homo sapiens, UniProt O15075)" relation== endpoint_result=0.58
molecule="COc1cc(NC(=O)CCC(=O)O)ccc1Nc1ncc2c(n1)N(C)c1ccccc1C(=O)N2C [Compound D2]" system_name="DCLK1 (Homo sapiens, UniProt O15075)" relation=< endpoint_result=0.07
molecule="COc1cc(NC(=O)CCCCCSC(C)=O)ccc1Nc1ncc2c(n1)N(C)c1ccccc1C(=O)N2C [Compound D8]" system_name="DCLK1 (Homo sapiens, UniProt O15075)" relation== endpoint_result=0.18
molecule="CCOc1cc(N2CCC(C(=O)O)CC2)ccc1Nc1ncc2c(n1)N(C)c1ccccc1C(=O)N2C [Compound D3]" system_name="DCLK1 (Homo sapiens, UniProt O15075)" relation=< endpoint_result=0.34
molecule="COc1cc(NC(=O)CC(=O)O)ccc1Nc1ncc2c(n1)N(C)c1ccccc1C(=O)N2C [Compound D1]" system_name="DCLK1 (Homo sapiens, UniProt O15075)" relation=< endpoint_result=0.05
molecule="COc1cc(N2CCCCC2)ccc1Nc1ncc2c(n1)N(C)c1ccccc1C(=O)N2C [Compound D11]" system_name="DCLK1 (Homo sapiens, UniProt O15075)" relation== endpoint_result=0.38
